Below, each entry is listed with its recorded growth.
System: COLO 205 colon
Experiment: NCI-60 one-dose screen, 48 h (100 = growth as untreated, 0 = no growth, -100 = all killed)
Details: 10 µM unless noted
Method: Cells are grown in 96 well plates and exposed to the test compound for 48 hours. Compounds are tested at a single concentration, which is 10^-5 M for most compounds. The reported endpoint is percent growth (GI% or GIPRCNT), where numbers from 0 - 100% represent growth inhibition, and numbers from -100% - 0 represent cell death. For example, a value of 40 represents 60% growth inhibition. A value of 0 means no net growth occurred over the course of the experiment. […]
Compounds without any hit were thinned out: in the full panel of roughly 83,000, 20% have a hit.
Give the value, in units of %, as a plain number.

Task: Field request: growth | item: O=c1oc2ccc(F)cc2c(=O)n1-c1ccc(I)cc1F
Result: 53.9

Task: Field request: growth | item: Cc1sc2ncnc(Sc3nc4ccccc4[nH]3)c2c1C
Result: -74.6

Task: Field request: growth | item: O=C(Nc1ccc(N2CCNCC2)cc1)c1[nH]ncc1Nc1cc(Oc2ccccc2)ncn1
Result: -49.1

Continuing:
Task: Field request: growth | item: COC(=O)/C(CCC=C(C)C)=C1\[C@@H](OC(C)=O)C[C@@]2(C)[C@H]1C[C@@H](O)[C@H]1[C@@]3(C)CC[C@H](NCCO)[C@@H](C)[C@@H]3CC[C@@]12C
Result: 103

Task: Field request: growth | item: COc1cc(/C=C2\CN(C)C/C(=C\c3cc(CN4CCOCC4)c(O)c(OC)c3)C2=O)cc(CN2CCOCC2)c1O
Result: 45.2

Task: Field request: growth | item: COc1ccc(C(O)(CCC(C)C)C(CN2CCOCC2)c2ccc(Cl)cc2)cc1 (configuration not stated)
Result: 76.4

Task: Field request: growth | item: CCCC(=O)CC(C)=O.CCCC(=O)CC(C)=O.[Cu]
Result: 97.4

Task: Field request: growth | item: COc1ccc(-c2cc(=O)c3c(OC)c4ccoc4c(/C=C/C=O)c3o2)cc1
Result: 99

----------
test system: HCT-15 colon; test: NCI-60 one-dose screen, 48 h (100 = growth as untreated, 0 = no growth, -100 = all killed); details: 10 µM unless noted
Compounds without any hit were thinned out: in the full panel of roughly 83,000, 20% have a hit.
property_label: growth (%)
Give the value, in units of %, as a plain number.

Study these solved cases before continuing.
Task: Field request: growth | item: O=C(c1nc2ccccc2[nH]1)C1C(c2ccc([N+](=O)[O-])cc2)C2CC3CCCCC3N2[C@@]12C(=O)Nc1cc(Cl)ccc12 (stereo not given in full)
Result: 11

Task: Field request: growth | item: Cc1sc2ncnc(Sc3nc4ccccc4[nH]3)c2c1C
Result: -38

Task: Field request: growth | item: FC(F)(F)c1cccc(Nc2nc3ccccc3nc2Nc2cccc(C(F)(F)F)c2)c1
Result: 2.32

Task: Field request: growth | item: COc1cc(/C=C2\Oc3cc(OCCCN4CCCC4)ccc3C2=O)cc(OC)c1
Result: 5.66

Task: Field request: growth | item: CCOC(=O)c1c2c(n3cccc(Cl)c13)C(=O)c1ncccc1C2=O
Result: 25.6

Continuing:
Task: Field request: growth | item: O=C(N=Nc1c(O)[nH]c2ccccc12)c1oc2ccccc2c1CN1CCN(c2ccccc2)CC1
Result: -8.29

Task: Field request: growth | item: CN1C(=O)N(C)C2C1NN=c1s/c(=C\c3c[nH]c4ccccc34)c(=O)n12 (stereo not given)
Result: 11.8

Task: Field request: growth | item: COc1ccc(C2Nc3ncnc(N)c3N=C3c4ccccc4C(=O)C32)cc1 (stereo not given)
Result: 89.4

Task: Field request: growth | item: CN1CCN(Cc2ccc(C(=O)Nc3cncc(C#Cc4cnc5cccnn45)c3)cc2C(F)(F)F)CC1
Result: 38.8

Task: Field request: growth | item: CN1C(=O)N(C)C2C1NN=c1s/c(=C\c3ccc(Cl)cc3Cl)c(=O)n12 (stereo not given)
Result: 15.8

Task: Field request: growth | item: O=Nc1c(O)ccc2ccccc12.O=Nc1c(O)ccc2ccccc12.O=Nc1c([O-])ccc2ccccc12.[Fe+3]
Result: 105

Task: Field request: growth | item: COc1cccc(C(=O)Cn2cc(/C=C(\C#N)S(=O)(=O)c3ccccc3)c3ccccc32)c1
Result: 110

Task: Field request: growth | item: O=C(CN1C(=O)/C(=C\c2ccc(Cl)cc2)SC1=S)Nc1ncc(Cc2ccc(Cl)cc2)s1
Result: 103

Task: Field request: growth | item: COc1ccc(Cn2cc(Cn3cc(C=C4C(=O)NC(=O)NC4=O)c4ccccc43)nn2)cc1
Result: 85.9

Task: Field request: growth | item: Cc1cc2c(c(C)c1Cl)C(=O)/C(=C/c1cccc([N+](=O)[O-])c1)O2
Result: 99.7

Task: Field request: growth | item: COc1cc(CNC(=O)c2ccsc2Nc2ccnc(C(F)(F)F)c2)ccc1O
Result: 99.1

Task: Field request: growth | item: O=c1oc2ccc(I)cc2c(=O)n1-c1ccc(F)cc1F
Result: 15.6

Task: Field request: growth | item: O=C1/C(=C\c2ccc[nH]2)c2ccccc2N1c1ccccc1
Result: 82.7

Task: Field request: growth | item: O=c1oc2ccc(I)cc2c(=O)n1-c1ccc(Br)cc1F
Result: -7.61

Task: Field request: growth | item: CC(C)CCOc1ccc(-c2n[nH]c(C(F)(F)F)c2-c2cncc(C#N)c2)c(O)c1
Result: 12
